Measured values drawn from PubChem BioAssay AID2060622 for this set.

# viability, T/C values compiled below
System: 242566-281-R-J2-PDC complex spheroid viability
assay-summary: Anticancer human tumor 242566-281-R-J2-PDC patient-derived pancreatic carcinoma cell line growth inhibition [CLK]
settings: second compound 0.0316 µM; first compound 10 µM; stronger effect = lower value
State just the number; it will be interpreted in %.

Assign viability, T/C to the following record: O=c1[nH]cc(F)c(=O)[nH]1 + CN1CCN(c2cc(C(=O)Nc3cc4cc(-c5cnn(C)c5)ccc4cn3)ccn2)CC1
56.1

----------
Test system: 242566-281-R-J2-PDC complex spheroid viability
assay-summary: Anticancer human tumor 242566-281-R-J2-PDC cell line growth inhibition [CLK];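 note: spheroids exposed to compounds for 7 days before readout; 100% = DMSO vehicle control wells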
settings: second compound 0.316 µM; first compound 1 µM; stronger effect = lower value
Doc: threshold 20% (exclusive). Items with viability, T/C beneath it return Fulfilled; others return Not fulfilled.

Worked examples, 8 compounds total:
{"compound": "CC(CO)NC(=O)c1cc(-c2ccc(Cl)cc2)nn(-c2cnn(C)c2)c1=O (stereo not given) + CNC(=O)c1ccc(Nc2nc(OC3CCCC3)c3c(-c4ccc5nc(C)oc5c4)c[nH]c3n2)c(OC)c1", "category-label": "Not fulfilled"}
{"compound": "CC(Nc1ccc2c(c1)OCCn1cc(N3C(=O)OCC3C(F)F)nc1-2)C(N)=O (stereo not given) + CN1CCN(c2cc(C(=O)Nc3cc4cc(-c5cnn(C)c5)ccc4cn3)ccn2)CC1", "category-label": "Fulfilled"}
{"compound": "CC(=O)O[C@H]1C(=O)[C@@]2(C)[C@H]([C@H](OC(=O)c3ccccc3)[C@]3(O)C[C@H](OC(=O)[C@H](O)[C@@H](NC(=O)c4ccccc4)c4ccccc4)C(C)=C1C3(C)C)[C@]1(OC(C)=O)CO[C@@H]1C[C@@H]2O + CNC(=O)c1ccc(Nc2nc(OC3CCCC3)c3c(-c4ccc5nc(C)oc5c4)c[nH]c3n2)c(OC)c1", "category-label": "Not fulfilled"}
{"compound": "CC(=O)O[C@H]1C(=O)[C@@]2(C)[C@H]([C@H](OC(=O)c3ccccc3)[C@]3(O)C[C@H](OC(=O)[C@H](O)[C@@H](NC(=O)c4ccccc4)c4ccccc4)C(C)=C1C3(C)C)[C@]1(OC(C)=O)CO[C@@H]1C[C@@H]2O + CN1CCN(c2cc(C(=O)Nc3cc4cc(-c5cnn(C)c5)ccc4cn3)ccn2)CC1", "category-label": "Fulfilled"}
{"compound": "CCN1CCN(Cc2ccc(Nc3ncc(F)c(-c4cc(F)c5nc(C)n(C(C)C)c5c4)n3)nc2)CC1 + CN1CCN(c2cc(C(=O)Nc3cc4cc(-c5cnn(C)c5)ccc4cn3)ccn2)CC1", "category-label": "Not fulfilled"}
{"compound": "C=C(F)C(=O)N1CCN(c2nc(OCC3CCCN3C)nc3c2CCN(c2cccc4cccc(Cl)c24)C3)CC1CC#N (stereo not given) + CNC(=O)c1ccc(Nc2nc(OC3CCCC3)c3c(-c4ccc5nc(C)oc5c4)c[nH]c3n2)c(OC)c1", "category-label": "Not fulfilled"}
{"compound": "Nc1ccccc1NC(=O)c1ccc(CNC(=O)OCc2cccnc2)cc1 + CN1CCN(c2cc(C(=O)Nc3cc4cc(-c5cnn(C)c5)ccc4cn3)ccn2)CC1", "category-label": "Not fulfilled"}
{"compound": "C=CC(=O)N1CCN(c2nc(=O)n(-c3c(C)ccnc3C(C)C)c3nc(-c4c(O)cccc4F)c(F)cc23)C(C)C1 (stereo not given) + CNC(=O)c1ccc(Nc2nc(OC3CCCC3)c3c(-c4ccc5nc(C)oc5c4)c[nH]c3n2)c(OC)c1", "category-label": "Not fulfilled"}

--- query ---
Lab note: confirm whether the reported viability, T/C for this compound is below 20%, equality not counting. compound: COc1c(OCCCN2CCOCC2)ccc2c3n(c(=NC(=O)c4cnc(N)nc4)nc12)CCN3 + CN1CCN(c2cc(C(=O)Nc3cc4cc(-c5cnn(C)c5)ccc4cn3)ccn2)CC1
Fulfilled

----------
Listed compounds paired with reported viability, T/C
System: 242566-281-R-J2-PDC complex spheroid viability
assay-summary: Anticancer human tumor 242566-281-R-J2-PDC cell line growth inhibition [CLK];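 note: spheroids exposed to compounds for 7 days before readout; 100% = DMSO vehicle control wells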
settings: second compound 0.316 µM; first compound 1 µM; stronger effect = lower value
Answer with a number only, understood to be in %.

// worked examples, viability, T/C included
{"compound": "O=C(c1cc(Cc2n[nH]c(=O)c3ccccc23)ccc1F)N1CCN(C(=O)C2CC2)CC1 + CNC(=O)c1ccc(Nc2nc(OC3CCCC3)c3c(-c4ccc5nc(C)oc5c4)c[nH]c3n2)c(OC)c1", "experimental-system": "242566-281-R-J2-PDC complex spheroid viability", "measurement-name": "viability, T/C", "result-units": "%", "observed-result": 92.7}
{"compound": "COc1cccc2c1C(=O)c1c(O)c3c(c(O)c1C2=O)CC(O)(C(=O)CO)CC3OC1CC(N)C(O)C(C)O1 (centres undefined) + CNC(=O)c1ccc(Nc2nc(OC3CCCC3)c3c(-c4ccc5nc(C)oc5c4)c[nH]c3n2)c(OC)c1", "experimental-system": "242566-281-R-J2-PDC complex spheroid viability", "measurement-name": "viability, T/C", "result-units": "%", "observed-result": 10.4}
{"compound": "CC1(C)CCC(CN2CCN(c3ccc(C(=O)NS(=O)(=O)c4ccc(NCC5CCOCC5)c([N+](=O)[O-])c4)c(Oc4cnc5[nH]ccc5c4)c3)CC2)=C(c2ccc(Cl)cc2)C1 + CNC(=O)c1ccc(Nc2nc(OC3CCCC3)c3c(-c4ccc5nc(C)oc5c4)c[nH]c3n2)c(OC)c1", "experimental-system": "242566-281-R-J2-PDC complex spheroid viability", "measurement-name": "viability, T/C", "result-units": "%", "observed-result": 92.4}

From here, focus on the item given below.
Determine from records and report viability, T/C for C#Cc1c(F)ccc2cc(O)cc(-c3ncc4c(N5CC6CCC(C5)N6)nc(OCC56CCCN5CC(F)C6)nc4c3F)c12 (centres undefined) + CNC(=O)c1ccc(Nc2nc(OC3CCCC3)c3c(-c4ccc5nc(C)oc5c4)c[nH]c3n2)c(OC)c1
39.3

----------
Test system: 242566-281-R-J2-PDC complex spheroid viability
assay-summary: Anticancer human tumor 242566-281-R-J2-PDC cell line growth inhibition [CLK]; active = viability on the fitted dose curve at most 10% of control; inactive = the rest;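 note: spheroids exposed to compounds for 7 days before readout; 100% = DMSO vehicle control wells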
settings: second compound 0.0316 µM; first compound 10 µM
Return exactly one item of 1 (yes) for active, 0 (no) for inactive

Reference set (7 entries):
{"compound": "CC(=O)O[C@H]1C(=O)[C@@]2(C)[C@H]([C@H](OC(=O)c3ccccc3)[C@]3(O)C[C@H](OC(=O)[C@H](O)[C@@H](NC(=O)c4ccccc4)c4ccccc4)C(C)=C1C3(C)C)[C@]1(OC(C)=O)CO[C@@H]1C[C@@H]2O + CNC(=O)c1ccc(Nc2nc(OC3CCCC3)c3c(-c4ccc5nc(C)oc5c4)c[nH]c3n2)c(OC)c1", "category-label": "0 (no)"}
{"compound": "Nc1ccn(C2OC(CO)C(O)C2(F)F)c(=O)n1 (stereo not drawn) + CN1CCN(c2cc(C(=O)Nc3cc4cc(-c5cnn(C)c5)ccc4cn3)ccn2)CC1", "category-label": "1 (yes)"}
{"compound": "CC1COCCN1c1cc(C2(S(C)(=N)=O)CC2)nc(-c2ccnc3[nH]ccc23)n1 (stereo not drawn) + CNC(=O)c1ccc(Nc2nc(OC3CCCC3)c3c(-c4ccc5nc(C)oc5c4)c[nH]c3n2)c(OC)c1", "category-label": "0 (no)"}
{"compound": "CC(CO)NC(=O)c1cc(-c2ccc(Cl)cc2)nn(-c2cnn(C)c2)c1=O (stereo not drawn) + CN1CCN(c2cc(C(=O)Nc3cc4cc(-c5cnn(C)c5)ccc4cn3)ccn2)CC1", "category-label": "0 (no)"}
{"compound": "COc1cccc2c1C(=O)c1c(O)c3c(c(O)c1C2=O)CC(O)(C(=O)CO)CC3OC1CC(N)C(O)C(C)O1 (stereo not drawn) + CN1CCN(c2cc(C(=O)Nc3cc4cc(-c5cnn(C)c5)ccc4cn3)ccn2)CC1", "category-label": "1 (yes)"}
{"compound": "COc1cccc2c1C(=O)c1c(O)c3c(c(O)c1C2=O)CC(O)(C(=O)CO)CC3OC1CC(N)C(O)C(C)O1 (stereo not drawn) + CNC(=O)c1ccc(Nc2nc(OC3CCCC3)c3c(-c4ccc5nc(C)oc5c4)c[nH]c3n2)c(OC)c1", "category-label": "1 (yes)"}
{"compound": "C=C(F)C(=O)N1CCN(c2nc(OCC3CCCN3C)nc3c2CCN(c2cccc4cccc(Cl)c24)C3)CC1CC#N (stereo not drawn) + CNC(=O)c1ccc(Nc2nc(OC3CCCC3)c3c(-c4ccc5nc(C)oc5c4)c[nH]c3n2)c(OC)c1", "category-label": "1 (yes)"}

# ---- query compound ----
State the result this test recorded for C#Cc1c(F)ccc2cc(O)cc(-c3ncc4c(N5CC6CCC(C5)N6)nc(OCC56CCCN5CC(F)C6)nc4c3F)c12 (stereo not drawn) + CNC(=O)c1ccc(Nc2nc(OC3CCCC3)c3c(-c4ccc5nc(C)oc5c4)c[nH]c3n2)c(OC)c1 .
0 (no)
